Values from PubChem BioAssay

measurement.target: Short transient receptor potential channel 4 (Mus musculus) (UniProt Q9QUQ5)
assay.details: calcium flux activators in TRPC4/5HT1a cells, counter-screen for TRPC4 activator project, cell-based, second counter screen, HEK293 TRPC4/5HT1a, Fluo-4 (AID 434977)
condition.parameters: Fluo-4 calcium flux, at 10 µM
Calls of active or inactive are those of the source.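 Rule for the calls: active = calcium signal rise above buffer-control mean plus 5 SD in both duplicates, and also a hit in the primary screen; inactive = the rest.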
A correct response names exactly one class from 1 for active, -1 for inactive

Some solved entries appear below for comparison.
compound | cat
CSc1ccc(C(=O)NCC(c2ccco2)N(C)C)cc1[N+](=O)[O-] (centres undefined) | 1
Cc1ccc(-c2csc(N(CCCN(C)C)C(=O)c3ccco3)n2)cc1 | -1
Cc1ccccc1N1CC(O)(c2ccccc2)[N+]2=C1SCC2 (centres undefined) | -1

**Query** // return assay outcome for "CN(Cc1ccccc1)C(=O)c1oc(=O)c2ccccc2c1-c1ccccc1"
**Result** -1

**Query** Hi team, can someone confirm the assay call for Cc1nc2ccccc2n1CC(O)COc1ccccc1Cl (centres undefined) ?
**Result** -1

**Query** Could you check what this test reported for "Cc1nc2ccccc2n1CCOc1ccc(F)cc1" ?
**Result** -1

**Query** Recorded test call requested for "CCCC[n+]1c2ccccc2cc2ccccc21"
**Result** -1

**Query** # outcome recorded in this test, key = "CC(C)(C)C(=O)NCCCc1nc2ccccc2n1CCCOc1ccc(Cl)cc1"
**Result** -1

**Query** Record lookup: outcome of this test for COc1ccc(/C=N/NC(=O)c2ccc(F)cc2)cc1CN1CCc2cc(OC)c(OC)cc2C1C (centres undefined) ?
**Result** -1

**Query** # fetch the recorded call for "CCNC(=S)N/N=C/c1cc(C)n(-c2ccc(Cl)cc2)c1C" here
**Result** -1

**Query** What did this assay record as the result for "CCOc1ccc2c(C)nc(NC3=NC(C)(C)C=C(C)N3)nc2c1" ?
**Result** -1

**Query** State the result this test recorded for "CC(=O)n1cc([C@@H]2C=C(C(=O)NCc3ccccc3)O[C@H](OCc3ccc(CO)cc3)C2)c2ccccc21" .
**Result** -1

**Query** Query: recorded result category for CCC(C)NCCOCCOc1ccccc1-c1ccccc1 (centres undefined) in this test
**Result** -1

###

Test system: TRPC4 beta (transient receptor potential cation channel C4), mouse
assay.details: TRPC4 cation channel opening, retest – cell-based, Fluo4 calcium, HEK293 TRPC4beta/mu-opioid, duplicates, 10 µM, confirmation (AID 2426)
condition.parameters: Fluo4 calcium fluorescence, at 10 µM
Active and inactive are the calls of the source.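 How the source made its calls: active means fluorescence ratio normalized to control raised more than 50% in primary screen plus both repeat runs; inactive means the rest.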
Result category, one only: 1 (yes) = active, 0 (no) = inactive

As a guide, the following entries are already answered.
molecule | cat
COCCn1c(SCc2cccc([N+](=O)[O-])c2)nc2ccccc2c1=O | 0 (no)
NC(=O)NCCN1CCN(c2ncc(C(F)(F)F)cc2Cl)CC1 | 0 (no)
Cc1ccc(NC(=O)CCN2CCC(Cc3ccccc3)CC2)cc1 | 0 (no)
CCC(=O)c1ccc(N2CCN(C(=O)c3ccccc3Br)CC2)c(F)c1 | 0 (no)
COc1ccccc1N1CCN(c2ncc(C(=O)N3CCN(c4cccc(Cl)c4)CC3)c3ccccc23)CC1 | 0 (no)

**Query** Dear colleague, could you share the recorded outcome for CN1CCN(c2ccc(Cl)cc2NC(=O)CC2OC(=O)c3ccccc32)CC1 (stereo not drawn) when you have a moment?
**Result** 0 (no)

**Query** GET /call?item= "Cc1cc(OCC(=O)Nc2ccc(N3CCN(C)CC3)cc2)ccc1Cl" returns the recorded outcome of this test.
**Result** 0 (no)
